The entries below come with measured log10 Cmax values attached.
Assay: Mouse pharmacokinetic test
Type: in vivo, ICR mice
Conditions: plasma, po, 30 mg/kg, PO-30mpk
readout: log10 Cmax (log10 of the value in ng/mL)

- compound: "CC(C)(c1ccc(-c2cnc(OCc3ccnc(N4CC([S@@](C)(=N)=O)C4)n3)cn2)cc1)c1cc(Cl)c(OCCCl)c(C#N)c1 (single isomer, unassigned) [Compound 323B]"
  log10 Cmax: 5.03
- compound: "CC(C)(c1ccc(-c2ccc(OCc3ccnc(N4CC(CS(C)(=O)=O)C4)n3)cc2)cc1)c1cc(Cl)c(OCCCl)c(C#N)c1 [Compound 175]"
  log10 Cmax: 3.96
- compound: "CC(C)(c1ccc(-c2cnc(OCc3ccnc(N4CC5(CCS5(=N)=O)C4)n3)cn2)cc1)c1cc(Cl)c(OCCCl)c(C#N)c1 (single isomer, unassigned) [Compound 375A]"
  log10 Cmax: 5.04
- compound: "CC(C)(c1ccc(-c2ccc(OCc3ccnc(N4CC(S(C)(=O)=O)C4)n3)nc2)cc1)c1cc(Cl)c(OCCCl)c(C#N)c1 [Compound 207]"
  log10 Cmax: 4.53
- compound: "CC(C)(c1ccc(-c2ccc(OCc3ccnc(N4CC(S(N)(=O)=O)C4)n3)cn2)cc1)c1cc(Cl)c(OCCCl)c(C#N)c1 [Compound 180]"
  log10 Cmax: 4.54
- compound: "CC(C)(c1ccc(-c2ccc(OCc3ccc(-c4cnc(P(C)(C)=O)nc4)nc3)cc2)cc1)c1cc(Cl)c(OCCCl)c(C#N)c1 [Compound 276]"
  log10 Cmax: 4.12

---

Experiment: Mouse pharmacokinetic test
Format: in vivo, ICR mice
Conditions: plasma, 30 mg/kg, PO-30mpk, read-out: Tmax
readout: Tmax

- mol: "CC(C)(c1ccc(-c2ccc(OCc3ccnc(P(C)(C)=O)n3)cc2)cc1)c1cnc2c(cnn2CCCl)c1"
  readout: "Tmax"
  value reported: "3.33 h"
- mol: "CCCOc1c(Cl)cc(C(C)(C)c2ccc(-c3ccc(OCc4ccnc(P(C)(C)=O)n4)cc3)cc2)cc1C#N"
  readout: "Tmax"
  value reported: "4 h"

---

The entries below come with measured Tmax values attached.
Experiment: Mouse pharmacokinetic test
Type: in vivo, ICR mice
Conditions: in vivo, 30 mg/kg, PO-30mpk, read-out: Tmax

- mol: "CC(C)(c1ccc(N2CCC(Oc3ccnc(P(C)(C)=O)n3)CC2)cc1)c1cc(Cl)c(OCCCl)c(C#N)c1"
  u: "h"
  Tmax: 3.3
- mol: "CC(C)(c1ccc(-c2cccc(OCc3ccnc(P(C)(C)=O)n3)c2)cc1)c1cc(Cl)c(OCCCl)c(C#N)c1"
  u: "h"
  Tmax: 2.7

---

Target: CYP2C9 (Homo sapiens)
Construct: co-incubated with human liver microsomes; from tissue; host or cells: human liver microsomes
Sequence (P11712 whole entry): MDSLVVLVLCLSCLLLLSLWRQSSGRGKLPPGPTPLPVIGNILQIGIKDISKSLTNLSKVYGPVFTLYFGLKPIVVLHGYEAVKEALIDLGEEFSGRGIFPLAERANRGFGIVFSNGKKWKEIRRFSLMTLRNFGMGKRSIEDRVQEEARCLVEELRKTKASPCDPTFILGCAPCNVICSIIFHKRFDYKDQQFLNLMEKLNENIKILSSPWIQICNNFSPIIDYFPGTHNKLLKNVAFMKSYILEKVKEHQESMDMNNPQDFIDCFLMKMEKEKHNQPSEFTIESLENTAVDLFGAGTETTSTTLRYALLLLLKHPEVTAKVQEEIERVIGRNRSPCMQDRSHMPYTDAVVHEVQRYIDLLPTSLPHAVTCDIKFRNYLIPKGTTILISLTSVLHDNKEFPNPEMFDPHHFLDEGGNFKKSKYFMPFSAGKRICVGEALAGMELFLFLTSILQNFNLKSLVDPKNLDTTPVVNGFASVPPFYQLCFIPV
Assay: CYP inhibition assay in human liver microsomes
Format: in vitro ADME
Settings: human liver microsomes, NADPH; read-out: CYPs 2C9 (IC50)
Source text: Test Example 3: CYP Inhibition Assay An in vitro assay system was used to evaluate the effects of the compounds on the activities of several human liver microsomal cytochrome P450 (CYP) isozymes (CYP1A2, CYP2C9, CYP2D6, CYP3A4 (testosterone/midazolam), CYP2C19, and CYP2C8). […] After the reaction was completed, the samples were processed, and the metabolites generated from the probe substrates were detected by liquid chromatography-tandem mass spectrometry (LC-MS/MS). […]
pIC50: −log10 of the molar value.
readout: pIC50

- compound: "CC(C)(c1ccc(-c2ccc(OCc3ccnc(P(C)(C)=O)n3)cc2)cc1)c1cc(Cl)c(OCCCl)c(C#N)c1"
  value reported: 5.16
- compound: "CC(C)(c1ccc(-c2ncc(OCc3ccnc(N4CC(S(C)(=O)=O)C4)n3)cn2)cc1)c1cc(Cl)c(OCCCl)c(C#N)c1"
  value reported: "< 5.00"
- compound: "CC(C)(c1ccc(-c2cnc(OCc3ccnc(N4CC([S@@](C)(=N)=O)C4)n3)cn2)cc1)c1cc(Cl)c(OCCCl)c(C#N)c1 (single isomer, unassigned) [Compound 323B]"
  value reported: 5.54
- compound: "CC(C)(c1ccc(-c2ccc(OCc3ccc(-c4cnc(P(C)(C)=O)nc4)nc3)cc2)cc1)c1cc(Cl)c(OCCCl)c(C#N)c1"
  value reported: "< 5.00"
- compound: "CC(C)(c1ccc(-c2ccc(OCC34CC(c5cnc(P(C)(C)=O)nc5)(C3)C4)cc2)cc1)c1cc(Cl)c(OCCCl)c(C#N)c1"
  value reported: "< 5.00"
- compound: "CC(C)(c1ccc(-c2ccc(OCc3ccnc(N4CC5(CCS(=N)(=O)CC5)C4)n3)cc2)cc1)c1cc(Cl)c(OCCCl)c(C#N)c1"
  value reported: "< 5.00"
- compound: "CC(C)(c1ccc(-c2ccc(OC3CCN(c4ccnc(N=S5(=O)CCCC5)n4)CC3)cc2)cc1)c1cc(Cl)c(OCCCl)c(C#N)c1"
  value reported: "< 5.00"
- compound: "CC(C)(c1ccc(-c2cnc(OCc3ccc(-c4ccc(P(C)(C)=O)nn4)cc3)cn2)cc1)c1cc(Cl)c(OCCCl)c(C#N)c1"
  value reported: "< 5.00"
- compound: "CC(C)(c1ccc(-c2cnc(OCc3ccnc(N4CC([S@](C)(=N)=O)C4)n3)cn2)cc1)c1cc(Cl)c(OCCCl)c(C#N)c1 (single isomer, unassigned) [Compound 323A]"
  value reported: 5.10

---

Test: Mouse pharmacokinetic test
Type: in vivo, ICR mice
Details: plasma, po, 30 mg/kg, PO-30mpk, read-out: Tmax
The entries below come with measured Tmax values attached.

- mol: "CC(C)(c1ccc(-c2ccc(OCc3ccnc(N4CC5(COC5)C4)n3)cn2)cc1)c1cc(Cl)c(OCCCl)c(C#N)c1"
  Tmax, h: 2.7
- mol: "CC(C)(c1ccc(-c2ccc(OC3CCN(c4ccnc(P(C)(C)=O)n4)CC3)cc2)cc1)c1cc(Cl)c(OCCCl)c(C#N)c1"
  Tmax, h: 4
- mol: "CC(C)(c1ccc(-c2ccc(OCc3ccnc(N4CC5(CC(P(C)(C)=O)C5)C4)n3)cc2)cc1)c1cc(Cl)c(OCCCl)c(C#N)c1"
  Tmax, h: 6
- mol: "Cc1cc(OCc2ccnc(P(C)(C)=O)n2)ccc1-c1ccc(C(C)(C)c2cc(Cl)c(OCCCl)c(C#N)c2)cc1"
  Tmax, h: 4.7

---

Assay: Mouse pharmacokinetic test
Assay type: in vivo, ICR mice
Conditions: plasma, po, 30 mg/kg, PO-30mpk, read-out: Tmax
The entries below come with measured Tmax values attached.

- molecule: "CC(C)(c1ccc(-c2cnc(OCc3ccnc(N=S4(=O)CCOCC4)n3)cn2)cc1)c1cc(Cl)c(OCCCl)c(C#N)c1 [Compound 206]"
  Tmax / h: 2
- molecule: "CC(C)(c1ccc(-c2ccc(OCc3ccnc(N4CC5(CCS5(=O)=O)C4)n3)cc2)cc1)c1cc(Cl)c(OCCCl)c(C#N)c1 [Compound 176]"
  Tmax / h: 4
- molecule: "CC(C)(c1ccc(-c2ccc(Oc3ccnc(P(C)(C)=O)n3)cc2)cc1)c1cc(Cl)c(OCCCl)c(C#N)c1 [Compound 26]"
  Tmax / h: 3.33
- molecule: "CC(C)(c1ccc(-c2ccc(OCc3ccnc(P(C)(C)=O)n3)nc2)cc1)c1cc(Cl)c(OCCCl)c(C#N)c1 [Compound 17]"
  Tmax / h: 4.67
- molecule: "CC(C)(c1ccc(-c2ccc(OCc3ccnc(N4CC(P(C)(C)=O)C4)n3)cc2)cc1)c1cc(Cl)c(OCCCl)c(C#N)c1 [Compound 135]"
  Tmax / h: 6
- molecule: "CC(C)(c1ccc(-c2ccc(OCc3cccc(S(C)(=N)=O)n3)cc2)cc1)c1cc(Cl)c(OCCCl)c(C#N)c1 (stereo not shown) [Compound 188]"
  Tmax / h: 3
- molecule: "CC(C)(c1ccc(-c2ccc(OCc3ccnc(N4CC(S(C)(=N)=O)C4)n3)cn2)cc1)c1cc(Cl)c(OCCCl)c(C#N)c1 (racemic) [Compound 242]"
  Tmax / h: 4
- molecule: "CC(C)(c1ccc(-c2cnc(OCc3ccnc(N4CC([S@](C)(=N)=O)C4)n3)cn2)cc1)c1cc(Cl)c(OCCCl)c(C#N)c1 (single isomer, unassigned) [Compound 323A]"
  Tmax / h: 3.3
- molecule: "CC(C)(c1ccc(-c2ccc(OCc3ccc(-c4cnc(P(C)(C)=O)nc4)cc3)cc2)cc1)c1cc(Cl)c(OCCCl)c(C#N)c1 [Compound 136]"
  Tmax / h: 7
- molecule: "CC(C)(c1ccc(-c2ccc(OCc3ccnc(N4CC5(CCS(=N)(=O)CC5)C4)n3)cc2)cc1)c1cc(Cl)c(OCCCl)c(C#N)c1 [Compound 289]"
  Tmax / h: 4
- molecule: "CC(C)(c1ccc(-c2ccc(OCc3ccnc(N4CC(S(N)(=O)=O)C4)n3)cn2)cc1)c1cc(Cl)c(OCCCl)c(C#N)c1 [Compound 180]"
  Tmax / h: 3
- molecule: "CC(C)(c1ccc(-c2ccc(OCc3ccnc(N=S4(=O)CCCC4)n3)cc2)cc1)c1cc(Cl)c(OCCCl)c(C#N)c1 [Compound 7]"
  Tmax / h: 3.3
- molecule: "CC(C)(c1ccc(-c2ccc(OCc3ccnc(N4CC(S(C)(=O)=O)C4)n3)cc2)cc1)c1cc(Cl)c(OCCCl)c(C#N)c1 [Compound 53]"
  Tmax / h: 4
